test system: Fibroblast; experiment: Multiplex assay against human fibroblast; type: toxicity, cell-based; conditions: 24 h, 10 µM, compound concentration 10 uM, replicate 1
Experimental Endpoint: Population Normal (%)
Give a bare numeral; the unit % is implied.

Br.CS(=O)(=O)Nc1c(O)ccc2c1CCCC2C1=NCCN1 (stereo not given)
96

For the molecule O=C(CCCc1ccccc1)Nc1nc2ccccc2c(=O)s1 , what Population Normal (%) is on record? 94

Next entry: N#Cc1cc(F)cc(-c2nc(-c3ccc(F)cn3)no2)c1 95

Entry to check: O=C(NCCN1CCC(n2c(=O)[nH]c3cc(Cl)ccc32)CC1)c1ccc(F)cc1 [HALOPEMIDE] 95

Another molecule to check: Cl.NCCc1ccc(O)c(O)c1 [DOPAMINE HYDROCHLORIDE] 97

Quick one: CC(=O)Nc1cccc2c1c(Sc1ccc(Cl)cc1)c(C)n2CC(=O)O 95

Please do the same for Cc1sc2c(c1C)C(c1ccc(Cl)cc1)=N[C@@H](CC(=O)NCCCCCCCCNC(=O)COc1cccc3c1C(=O)N(C1CCC(=O)NC1=O)C3=O)c1nnc(C)n1-2 (stereo not given in full) as well. 86

What do you have for COc1cccc2c1c(NS(=O)(=O)c1ccc(Cl)s1)nn2Cc1cccc(CNC(=O)C(C)(C)O)c1 ? 97

Follow-up item: Cc1onc(-c2ccccc2Cl)c1C(=O)N(C)c1ccc(Cl)cc1 97

What about this molecule? CC(C)c1noc(N2CCC(COc3ccc(-c4ccc(S(C)(=O)=O)cc4)nc3)CC2)n1 97

Then this molecule: CCCCC1=NC2(CCCC2)C(=O)N1Cc1ccc(-c2ccccc2-c2nnn[nH]2)cc1 98

Then this molecule: CCCCCC(O)/C=C/[C@H]1C(=O)CC(O)C1C/C=C\CCCC(=O)O (stereo not given in full) 97

Now the same for CC[C@@H](C)Nc1nc(C)nc2c(-c3ccc(OC)nc3C)c(C)nn12 98

Item: Cl.N=C(N)NC(=O)Cc1c(Cl)cccc1Cl [GUANFACINE HYDROCHLORIDE] 98

And for CCc1cc2cc(NS(=O)(=O)c3ccc(C#N)cc3)ccc2n(CC)c1=O ? 97

* * *

test system: HEK-293T; test: Multiplex assay against HEK293T; format: toxicity, cell-based; conditions: human, 24 h, 10 µM, compound concentration 10 uM, replicate 2
Experimental Endpoint: Population Mitotic Cells (%)
Supply the numeric figure in %, leaving out any unit text.

Consider the worked cases shown below.
CCc1cc2cc(NS(=O)(=O)c3ccc(C#N)cc3)ccc2n(CC)c1=O
36
CN(C)C(=O)Cn1cc(-c2ccc(-c3cncc4ccccc34)cc2)cn1
54
Cc1c(CC(=O)O)c2cccnc2n1Cc1ccc(S(C)(=O)=O)cc1C(F)(F)F
50

Sample CC(=O)Nc1cccc2c1c(Sc1ccc(Cl)cc1)c(C)n2CC(=O)O — what was its Population Mitotic Cells (%)? 40

Now the same for CC(C)COc1ccc(CNC(=O)N(Cc2ccc(F)cc2)C2CCN(C)CC2)cc1 15

Now give it for Cc1onc(-c2ccccc2Cl)c1C(=O)N(C)c1ccc(Cl)cc1 too. 70

Now this one: CC(/C=C1\SC(=S)N(CCCC(=O)Nc2ccc(C(=O)O)c(O)c2)C1=O)=C\c1ccccc1 60

Then this molecule: COC[C@@H](c1ccc(C(F)(F)F)cc1)N1CCN(C2(C)CCN(C(=O)c3c(C)ncnc3C)CC2)C[C@@H]1C.O=C(O)/C=C\C(=O)O [VICRIVIROC MALEATE] 39

Lookup Cc1sc2c(c1C)C(c1ccc(Cl)cc1)=N[C@@H](CC(=O)NCCCCCCCCNC(=O)COc1cccc3c1C(=O)N(C1CCC(=O)NC1=O)C3=O)c1nnc(C)n1-2 (stereo not given in full) 42

Try CC(C)(C)c1cc(NC(=O)Nc2ccc(-c3cn4c(n3)sc3cc(OCCN5CCOCC5)ccc34)cc2)no1 next. 30

* * *

Population Mitotic Cells (%) by entry:
tested on: U2OS; assay: Multiplex assay against U2OS; type: toxicity, cell-based; settings: human, 12 h, 1 µM, compound concentration 1 uM, replicate 2
Reply with a number, then the unit it belongs to.

CN[C@@H](C)C(=O)N[C@H](C(=O)N1CCC[C@H]1C(=O)Nc1snnc1-c1ccccc1)C1CCCCC1 [GDC-0152]
10%
Br.CS(=O)(=O)Nc1c(O)ccc2c1CCCC2C1=NCCN1 (stereo not given)
20%
CN(C)C(=O)Cn1cc(-c2ccc(-c3cncc4ccccc34)cc2)cn1
30%
O=C(CCCc1ccccc1)Nc1nc2ccccc2c(=O)s1
44%

What Population Mitotic Cells (%) value was documented for this compound, CC[C@@H](C)Nc1nc(C)nc2c(-c3ccc(OC)nc3C)c(C)nn12 [PEXACERFONT] ? 12%

Moving on to COc1cccc2c1c(NS(=O)(=O)c1ccc(Cl)s1)nn2Cc1cccc(CNC(=O)C(C)(C)O)c1 18%

Try this compound next: NCCc1cn(S(=O)(=O)c2c(Cl)nc3sccn23)c2ccccc12.O=C(O)C(=O)O 18%

Proceed to C[C@H](N)COC(=O)[C@@H](CCCCN)NC(=O)Cc1c(-c2ccc3ccccc3c2)[nH]c2c1ccc1ccccc12 25%

# iterate: CN1CCN(c2cc(-c3ccccc3)nc(N)n2)CC1 37%

Now the same for Cl.N=C(N)NC(=O)Cc1c(Cl)cccc1Cl [GUANFACINE HYDROCHLORIDE] 0%

Next record, please: N#Cc1cc(F)cc(-c2nc(-c3ccc(F)cn3)no2)c1 0%

* * *

test system: HEK-293T; experiment: Multiplex assay against HEK293T; type: toxicity, cell-based; conditions: human, 24 h, 10 µM, compound concentration 10 uM, replicate 2
Please mark satisfied if the recorded Population Mitotic Cells (%) is equal to or greater than 60%, and not satisfied if it falls below.

NCCc1cn(S(=O)(=O)c2c(Cl)nc3sccn23)c2ccccc12.O=C(O)C(=O)O
not satisfied
Br.CS(=O)(=O)Nc1c(O)ccc2c1CCCC2C1=NCCN1 (stereo not given)
satisfied

Quick check, Population Mitotic Cells (%) >= 60%? O=C(CCCc1ccccc1)Nc1nc2ccccc2c(=O)s1 not satisfied

Follow-up entry: C[C@H](N)COC(=O)[C@@H](CCCCN)NC(=O)Cc1c(-c2ccc3ccccc3c2)[nH]c2c1ccc1ccccc12 not satisfied

* * *

test system: Fibroblast; assay: Multiplex assay against human fibroblast; assay type: toxicity, cell-based; settings: 48 h, 1 µM, compound concentration 1 uM, replicate 1
Rule: Population Pyknosed Nuclei (%) under 10% gives F, otherwise T.

Use the examples below as a reference point.
O=C1[C@H](Cc2ccc(O)cc2)N2C(=O)CCN(C(=O)NCc3ccccc3)[C@H]2CN1Cc1cccc2ccccc12
T
N#Cc1cc(F)cc(-c2nc(-c3ccc(F)cn3)no2)c1
F
CN(C)C(=O)Cn1cc(-c2ccc(-c3cncc4ccccc34)cc2)cn1
T
Cc1c(CC(=O)O)c2cccnc2n1Cc1ccc(S(C)(=O)=O)cc1C(F)(F)F
T
COc1cccc2c1c(NS(=O)(=O)c1ccc(Cl)s1)nn2Cc1cccc(CNC(=O)C(C)(C)O)c1
T
Cc1noc(-c2ccc(-c3ccc(CC(=O)O)cc3)cc2)c1NC(=O)O[C@H](C)c1ccccc1Cl
F
CC(C)c1noc(N2CCC(COc3ccc(-c4ccc(S(C)(=O)=O)cc4)nc3)CC2)n1
F
CCc1cc2cc(NS(=O)(=O)c3ccc(C#N)cc3)ccc2n(CC)c1=O
T

Please look at the following molecule next.
Is the recorded value of Population Pyknosed Nuclei (%) equal to or greater than 10% for this molecule? O=C(NCCN1CCC(n2c(=O)[nH]c3cc(Cl)ccc32)CC1)c1ccc(F)cc1 [HALOPEMIDE] T

* * *

test system: HEK-293T; assay: Multiplex assay against HEK293T; type: toxicity, cell-based; details: human, 24 h, 1 µM, compound concentration 1 uM, replicate 1
Experimental Endpoint: Population Healthy Nuclei (%)
Give the value in % but do not write % after it.

CCCCCC(O)/C=C/[C@H]1C(=O)CC(O)C1C/C=C\CCCC(=O)O (stereo partly drawn)
83

Tell me reported Population Healthy Nuclei (%) for O=C(NCCN1CCC(n2c(=O)[nH]c3cc(Cl)ccc32)CC1)c1ccc(F)cc1 [HALOPEMIDE] , tested with HEK-293T. 79

Try this molecule next: CCCCC(=O)N(Cc1ccc(-c2ccccc2-c2nnn[nH]2)cc1)[C@H](C(=O)O)C(C)C 78

Proceed to COc1cccc2c1c(NS(=O)(=O)c1ccc(Cl)s1)nn2Cc1cccc(CNC(=O)C(C)(C)O)c1 81

Then Br.CS(=O)(=O)Nc1c(O)ccc2c1CCCC2C1=NCCN1 (stereo not drawn) ? 79

// next record CCc1cc2cc(NS(=O)(=O)c3ccc(C#N)cc3)ccc2n(CC)c1=O 80

Try the molecule CC(C)COc1ccc(CNC(=O)N(Cc2ccc(F)cc2)C2CCN(C)CC2)cc1 [PIMAVANSERIN] 77
